Test system: TNF-α
assay_details: Cytokine assay, TNF-α release from PBMC
Assay type: cell-based
condition_label: Homo sapiens, PBMC, 24 h, 1 μg/mL LPS, supernatant at 24 hours
pIC50: −log10 of the molar value.
Reported values of pIC50 for individual entries
measured_parameter: pIC50

INSERT INTO assay_data (substance_smiles, obs_value) VALUES
  ('N#Cc1ccc(Oc2ccc3c(c2)COB3O)cc1OC1CCCC1', '> 6.00'),
  ('COc1ccc(Oc2ccc3c(c2)COB3O)cc1OC', '5.40 to 6.00'),
  ('O=C(O)c1ccc(Oc2ccc3c(c2)COB3O)cc1', '< 5.00'),
  ('CC(C)(C)OC(=O)COc1cc(Oc2ccc3c(c2)COB3O)ccc1C#N', '> 6.00'),
  ('N#Cc1ccc(Oc2ccc3c(c2)COB3O)c(OCC2CCCC2)c1', '> 6.00'),
  ('CCNC(=O)c1ccc(Oc2ccc3c(c2)COB3O)nc1', '> 6.00'),
  ('COCCNc1ccc(C#N)c(Oc2ccc3c(c2)COB3O)n1', '> 6.00'),
  ('CC(C)(C)Nc1nc(Oc2ccc3c(c2)COB3O)ccc1C#N', '> 6.00'),
  ('N#Cc1ccc(Oc2ccc3c(c2)COB3O)nc1N1CCCC1', '> 6.00'),
  ('N#Cc1ccc(Oc2ccc3c(c2)COB3O)c(O)c1', '> 6.00'),
  ('CCOC(=O)c1ccc(Oc2ccc3c(c2)COB3O)c(OC2CCCC2)c1', '5.40 to 6.00'),
  ('N#Cc1ccc(Oc2ccc3c(c2)COB3O)cc1OCC(=O)N1CCOCC1', '5.40 to 6.00'),
  ('CC(C)Oc1nc(Oc2ccc3c(c2)COB3O)ccc1C#N', '> 6.00'),
  ('N#Cc1ccc(Oc2ccc3c(c2)COB3O)c(F)c1', '5.40 to 6.00'),
  ('CCOC(=O)c1ccc(Oc2ccc3c(c2)COB3O)cc1', '5.40 to 6.00');

---

Test system: TNF-α
assay_details: Cytokine assay, TNF-α release from PBMC
Format: cell-based
condition_label: Homo sapiens, PBMC, 24 h, 1 μg/mL LPS, supernatant at 24 hours
pIC50: −log10 of the molar value.
measured_parameter: pIC50

INSERT INTO assay_data (substance_smiles, measured_parameter, obs_value) VALUES
  ('NCc1ccc(Oc2ccc3c(c2)COB3O)nc1NCCO', 'pIC50', '5.40 to 6.00'),
  ('CN1CCN(C(=O)c2ccc(Oc3ccc4c(c3)COB4O)cc2)CC1', 'pIC50', '< 5.00'),
  ('COc1nc(Oc2ccc3c(c2)COB3O)ccc1C(N)=O', 'pIC50', '> 6.00');

---

Tested on: TNF-α
assay_details: Cytokine assay, TNF-α release from PBMC
Format: cell-based
condition_label: Homo sapiens, PBMC, 24 h, 1 μg/mL LPS, supernatant at 24 hours
measured_parameter: IC50

INSERT INTO assay_data (compound, obs_value) VALUES
  ('O=Cc1ccc(Oc2ccc3c(c2)COB3O)nc1 [D69]', '1 to 4 µM'),
  ('Cc1cc(C#N)ccc1Oc1ccc2c(c1)COB2O [D85]', '< 1 µM'),
  ('CCS(=O)(=O)c1ccc(Oc2ccc3c(c2)COB3O)cc1 [D105]', '1 to 4 µM'),
  ('COc1ccc(C2CNC(=O)C2)cc1OC1CCCC1 (centres unmarked) [Rolipram, rolipram, reference compound]', '< 1 µM'),
  ('N#Cc1ccc(COc2ccc3c(c2)COB3O)cc1 [D1]', '4 to 10 µM'),
  ('CCOC(=O)c1ccc(Oc2ccc3c(c2)COB3O)cc1Cl [D57]', '4 to 10 µM'),
  ('CS(=O)(=O)c1ccc(Oc2ccc3c(c2)COB3O)cc1 [D103]', '1 to 4 µM'),
  ('COc1nc(Oc2ccc3c(c2)COB3O)ncc1C#N [D116]', '< 1 µM'),
  ('CC(C)OC(=O)c1ccc(Oc2ccc3c(c2)COB3O)c(F)c1 [D55]', '4 to 10 µM'),
  ('CCOc1cc(Oc2ccc3c(c2)COB3O)ncc1C#N [D120]', '< 1 µM'),
  ('COc1cc(C#N)ccc1Oc1ccc2c(c1)COB2O [D15]', '< 1 µM');

---

Reported values of pIC50 for individual entries
Test system: IL-5
assay_details: Cytokine assay, IL-5 release from PBMC
Assay type: cell-based
condition_label: human PBMC, 20 ug/mL PHA, supernatant at 48 hours
pIC50: −log10 of the molar value.
measured_parameter: pIC50

INSERT INTO results (compound, measured_parameter, obs_value) VALUES
  ('CC(=O)OCCOc1nc(Oc2ccc3c(c2)COB3O)ccc1C#N [D126]', 'pIC50', '> 6.00'),
  ('COc1nc(Oc2ccc3c(c2F)COB3O)ccc1C#N [D114]', 'pIC50', '> 6.00'),
  ('COC(=O)c1ccc(Oc2ccc3c(c2)COB3O)cc1 [D71]', 'pIC50', '5.00 to 5.40'),
  ('CS(=O)(=O)c1ccc(Oc2ccc3c(c2)COB3O)cc1 [D103]', 'pIC50', '> 6.00'),
  ('CN1CCN(Cc2cc(C#N)ccc2Oc2ccc3c(c2)COB3O)CC1 [D33]', 'pIC50', '> 6.00'),
  ('COC(=O)c1ccc(Oc2ccc3c(c2)COB3O)c(F)c1 [D50]', 'pIC50', '5.40 to 6.00'),
  ('CCOc1cc(Oc2ccc3c(c2)COB3O)ncc1C#N [D120]', 'pIC50', '> 6.00'),
  ('COc1nc(Oc2ccc3c(c2)COB3O)ncc1C#N [D116]', 'pIC50', '> 6.00'),
  ('N#Cc1ccc(Oc2ccc3c(c2)COB3O)nc1 [D82]', 'pIC50', '5.40 to 6.00'),
  ('N#Cc1ccc(Oc2ccc3c(c2)COB3O)c(CNC=O)c1 [D25]', 'pIC50', '> 6.00'),
  ('CC(C)OC(=O)c1ccc(Oc2ccc3c(c2)COB3O)nc1 [D67]', 'pIC50', '> 6.00');

---

System: IL-10
assay_details: Cytokine assay, IL-10 release from PBMC
Type: cell-based
condition_label: human PBMC, 20 ug/mL PHA, supernatant at 48 hours
pIC50: −log10 of the molar value.
Reported values of pIC50 for individual entries
measured_parameter: pIC50

INSERT INTO measurements (compound, obs_value) VALUES
  ('O=C(NCc1ccccn1)c1ccc(Oc2ccc3c(c2)COB3O)cc1 [D78]', '5.40 to 6.00'),
  ('CCOC(=O)c1ccc(Oc2ccc3c(c2)COB3O)cc1Cl [D57]', '< 5.00'),
  ('COc1nc(Oc2ccc3c(c2)COB3O)ncc1C#N [D116]', '5.40 to 6.00'),
  ('CCCCOC(=O)c1ccc(Oc2ccc3c(c2)COB3O)nc1 [D68]', '5.40 to 6.00'),
  ('CCOC(=O)c1cc(Cl)c(Oc2ccc3c(c2)COB3O)cc1F [D58]', '< 5.00');

---

Reported values of pIC50 for individual entries
Test system: IL-10
assay_details: Cytokine assay, IL-10 release from PBMC
Assay type: cell-based
condition_label: human PBMC, 20 ug/mL PHA, supernatant at 48 hours
pIC50: −log10 of the molar value.
measured_parameter: pIC50

INSERT INTO results (substance_smiles, tested_on, measured_parameter, obs_value) VALUES
  ('COc1cc(Oc2ccc3c(c2)COB3O)ccc1C#N', 'IL-10', 'pIC50', '> 6.00'),
  ('NCc1ccc(Oc2ccc3c(c2)COB3O)nc1NCCO', 'IL-10', 'pIC50', '< 5.00'),
  ('CN(C)CCOC(=O)c1ccc(Oc2ccc3c(c2)COB3O)cc1', 'IL-10', 'pIC50', '< 5.00'),
  ('Cc1cc(C#N)ccc1Oc1ccc2c(c1)COB2O', 'IL-10', 'pIC50', '5.40 to 6.00');

FYI, the data here is from patent US9012431B2.
